Provenance of the data: patent EP1444982A1

Target: UniProtKB P49187
Sequence (P49187 whole entry): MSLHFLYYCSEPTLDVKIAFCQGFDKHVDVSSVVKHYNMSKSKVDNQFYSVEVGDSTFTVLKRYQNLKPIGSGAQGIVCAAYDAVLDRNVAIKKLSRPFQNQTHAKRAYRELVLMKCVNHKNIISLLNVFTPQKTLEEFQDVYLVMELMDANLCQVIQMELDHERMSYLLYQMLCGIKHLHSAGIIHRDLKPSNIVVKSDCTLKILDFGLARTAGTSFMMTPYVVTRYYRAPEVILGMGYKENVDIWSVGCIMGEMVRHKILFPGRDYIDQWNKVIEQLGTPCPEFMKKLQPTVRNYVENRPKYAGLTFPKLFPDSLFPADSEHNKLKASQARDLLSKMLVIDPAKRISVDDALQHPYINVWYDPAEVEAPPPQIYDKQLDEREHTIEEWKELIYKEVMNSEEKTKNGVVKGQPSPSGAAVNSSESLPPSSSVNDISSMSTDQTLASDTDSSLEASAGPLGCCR
Experiment: Kinase inhibition assay: JNK3
Assay type: biochemical
Conditions: 30µM Testsubstanz (100 µM ATP); read-out: Hemmung von Kinasen in % JNK3 (r)
In this section we review reported inhibition at 30 µM values for a set of molecules.
Quick reminder: number only, in %, skip the unit.

[ask] Fill blank: measured inhibition at 30 µM of the molecule Cn1c(-c2ccc([S+](C)[O-])cc2)nc2c(Sc3ccc(F)cc3)ncnc21 (stereo not shown) [Verbd. 60] is ____.
[reply] 10

[ask] Fill blank: measured inhibition at 30 µM of the molecule Nc1ncnc2c1ncn2Cc1ccc(F)cc1 [Verbd. 42a, 9-(4-Fluoro-benzyl)-9H-purin-6-ylamin] is ____.
[reply] 17

[ask] Fill blank: measured inhibition at 30 µM of the molecule Fc1ccc(Sc2ncnc3[nH]cnc23)cc1 [Verbd. 16, 6-(4-Fluoro-phenylsulfanyl)-9H-purin] is ____.
[reply] 8

[ask] Fill blank: measured inhibition at 30 µM of the molecule Fc1ccc(Sc2ncnc3[nH]ccc23)cc1 [Verbd. 53] is ____.
[reply] 5

[ask] Fill blank: measured inhibition at 30 µM of the molecule C(=Cc1ncnc2[nH]cnc12)c1ccccc1 [Verbd. 72, 6-Styryl-9H-purin] is ____.
[reply] 2

Others:
[ask] Fill blank: measured inhibition at 30 µM of the molecule Nc1ncnc2ncn(Cc3ccc(F)cc3)c12 [Verbd. 43, 7-(4-Fluoro-benzyl)-7H-purin-6-ylamin] is ____.
[reply] 25

[ask] Fill blank: measured inhibition at 30 µM of the molecule Fc1ccc(Cn2cnc3c(Sc4ccc(F)cc4)ncnc32)cc1 [Verbd. 77] is ____.
[reply] 0

###

System: ROCKII (h)
Assay: Kinase inhibition assay (33P-ATP, P30 filter, scintillation counting): ROCK-II
Format: biochemical
Details: 30µM Testsubstanz (100 µM ATP); 40 min
Could you label it Condition met if measured Hemmung von Kinasen in % ROCKII (h) is 6% or higher, and Condition not met otherwise?

[ask] Could you tell me if the measured Hemmung von Kinasen in % ROCKII (h) of c1ccc(Sc2ncnc3[nH]ccc23)cc1 reaches 6% or more?
[reply] Condition met

[ask] Could you tell me if the measured Hemmung von Kinasen in % ROCKII (h) of Cn1cnc2c(Nc3ccc(F)cc3)ncnc21 reaches 6% or more?
[reply] Condition met

[ask] Could you tell me if the measured Hemmung von Kinasen in % ROCKII (h) of c1ccc(CSc2ncnc3[nH]cnc23)cc1 reaches 6% or more?
[reply] Condition met

[ask] Could you tell me if the measured Hemmung von Kinasen in % ROCKII (h) of Cn1c(-c2ccccc2)nc2c(Sc3ccc(F)cc3)ncnc21 reaches 6% or more?
[reply] Condition met

Now for a further compound.
[ask] Could you tell me if the measured Hemmung von Kinasen in % ROCKII (h) of COc1ncnc2ncn(Cc3ccc(F)cc3)c12 reaches 6% or more?
[reply] Condition not met

###

System: PKA (h)
Assay: Kinase inhibition assay (33P-ATP, P30 filter, scintillation counting): PKA
Format: biochemical
Conditions: 30µM Testsubstanz (100 µM ATP); 40 min
Could you label it 1 (yes) if measured Hemmung von Kinasen in % PKA (h) is 3% or higher, and 0 (no) otherwise?

Worked examples follow.
[ask] Could you tell me if the measured Hemmung von Kinasen in % PKA (h) of c1ccc(Sc2ncnc3[nH]cnc23)cc1 [Verbd. 15, 6-Phenylsulfanyl-9H-purin] reaches 3% or more?
[reply] 1 (yes)

[ask] Could you tell me if the measured Hemmung von Kinasen in % PKA (h) of Fc1ccc(Cn2cnc3c(Sc4ccccc4)ncnc32)cc1 [Verbd. 76] reaches 3% or more?
[reply] 0 (no)

[ask] Could you tell me if the measured Hemmung von Kinasen in % PKA (h) of c1ccc(Cn2cnc3c(Sc4ccccc4)ncnc32)cc1 [Verbd. 74, 9-Benzyl-6-phenylsulfanyl-9H-purin] reaches 3% or more?
[reply] 0 (no)

[ask] Could you tell me if the measured Hemmung von Kinasen in % PKA (h) of Cn1c(-c2ccc([S+](C)[O-])cc2)nc2c(Sc3ccc(F)cc3)ncnc21 (centres unmarked) [Verbd. 60] reaches 3% or more?
[reply] 1 (yes)

[ask] Could you tell me if the measured Hemmung von Kinasen in % PKA (h) of c1ccc(CSc2ncnc3[nH]cnc23)cc1 [Verbd. 9, 6-Benzylsulfanyl-9H-purin] reaches 3% or more?
[reply] 1 (yes)

Others:
[ask] Could you tell me if the measured Hemmung von Kinasen in % PKA (h) of C(=Cc1ncnc2[nH]cnc12)c1ccccc1 [Verbd. 72, 6-Styryl-9H-purin] reaches 3% or more?
[reply] 1 (yes)

[ask] Could you tell me if the measured Hemmung von Kinasen in % PKA (h) of Nc1ncnc2c1ncn2Cc1ccc(F)cc1 [Verbd. 42a, 9-(4-Fluoro-benzyl)-9H-purin-6-ylamin] reaches 3% or more?
[reply] 0 (no)

###

Target: Lck (h) (Homo sapiens)
Sequence (P06239 whole entry): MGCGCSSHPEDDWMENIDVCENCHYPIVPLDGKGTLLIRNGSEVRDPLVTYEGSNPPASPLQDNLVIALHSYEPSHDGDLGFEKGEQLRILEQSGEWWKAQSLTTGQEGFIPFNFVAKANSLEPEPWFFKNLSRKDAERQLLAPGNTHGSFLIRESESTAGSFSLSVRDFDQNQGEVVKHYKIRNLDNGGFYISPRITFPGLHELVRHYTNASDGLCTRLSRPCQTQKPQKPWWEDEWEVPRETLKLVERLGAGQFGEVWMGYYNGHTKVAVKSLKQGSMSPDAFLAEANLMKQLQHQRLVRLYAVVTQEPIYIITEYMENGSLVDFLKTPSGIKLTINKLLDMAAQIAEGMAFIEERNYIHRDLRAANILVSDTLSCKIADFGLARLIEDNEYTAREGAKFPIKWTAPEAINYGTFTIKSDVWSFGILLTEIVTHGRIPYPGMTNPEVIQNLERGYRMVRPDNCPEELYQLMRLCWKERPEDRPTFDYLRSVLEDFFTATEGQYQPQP
Experiment: Kinase inhibition assay (33P-ATP, P30 filter, scintillation counting): Lck
Type: biochemical
Conditions: 30µM Testsubstanz (100 µM ATP); read-out: Hemmung von Kinasen in % Lck (h)
Could you label it TRUE if measured inhibition at 30 µM is 20% or higher, and FALSE otherwise?

Worked examples follow.
[ask] Could you tell me if the measured inhibition at 30 µM of c1ccc(Cn2cnc3c(Sc4ccccc4)ncnc32)cc1 reaches 20% or more?
[reply] FALSE

[ask] Could you tell me if the measured inhibition at 30 µM of c1ccc(CSc2ncnc3[nH]cnc23)cc1 reaches 20% or more?
[reply] TRUE

[ask] Could you tell me if the measured inhibition at 30 µM of Fc1ccc(Cn2cnc3c(Sc4ccccc4)ncnc32)cc1 reaches 20% or more?
[reply] FALSE

[ask] Could you tell me if the measured inhibition at 30 µM of Cn1c(-c2ccc([S+](C)[O-])cc2)nc2c(Sc3ccc(F)cc3)ncnc21 (centres unmarked) reaches 20% or more?
[reply] TRUE

[ask] Could you tell me if the measured inhibition at 30 µM of Cn1c(-c2ccccc2)nc2c(Sc3ccccc3)ncnc21 reaches 20% or more?
[reply] FALSE

Others:
[ask] Could you tell me if the measured inhibition at 30 µM of c1ccc(Sc2ncnc3[nH]ccc23)cc1 reaches 20% or more?
[reply] TRUE

[ask] Could you tell me if the measured inhibition at 30 µM of C(=Cc1ncnc2[nH]cnc12)c1ccccc1 reaches 20% or more?
[reply] TRUE

[ask] Could you tell me if the measured inhibition at 30 µM of Nc1ncnc2ncn(Cc3ccc(F)cc3)c12 reaches 20% or more?
[reply] FALSE

###

Biological target: MEK1 (h) (Homo sapiens, UniProt Q02750)
Sequence (Q02750 whole entry): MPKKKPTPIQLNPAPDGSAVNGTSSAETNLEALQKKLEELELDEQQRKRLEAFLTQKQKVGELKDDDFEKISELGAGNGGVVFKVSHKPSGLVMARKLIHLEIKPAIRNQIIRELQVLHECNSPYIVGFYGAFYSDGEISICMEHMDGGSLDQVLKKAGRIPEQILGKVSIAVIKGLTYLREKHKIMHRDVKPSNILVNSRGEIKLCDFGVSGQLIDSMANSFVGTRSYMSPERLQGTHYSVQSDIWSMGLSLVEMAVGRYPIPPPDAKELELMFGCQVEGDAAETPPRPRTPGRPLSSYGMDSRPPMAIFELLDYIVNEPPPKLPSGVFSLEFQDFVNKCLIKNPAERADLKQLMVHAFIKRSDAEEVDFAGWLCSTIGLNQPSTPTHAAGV
Test: Kinase inhibition assay: MEK1 (coupled to MAPK2 assay)
Format: biochemical
Details: 30µM Testsubstanz (100 µM ATP); read-out: Hemmung von Kinasen in % MEK1 (h)
Could you label it Fulfilled if measured inhibition at 30 µM is 7% or higher, and Not fulfilled otherwise?

Worked examples follow.
[ask] Could you tell me if the measured inhibition at 30 µM of COc1ncnc2ncn(Cc3ccc(F)cc3)c12 [Verbd. 44, 7-(4-Fluoro-benzyl)-6-methoxy-7H-purin] reaches 7% or more?
[reply] Not fulfilled

[ask] Could you tell me if the measured inhibition at 30 µM of Cn1cnc2c(Nc3ccccc3)ncnc21 [Verbd. 13, (9-Methyl-9H-purin-6-yl)-phenyl-amin] reaches 7% or more?
[reply] Not fulfilled

[ask] Could you tell me if the measured inhibition at 30 µM of Fc1ccc(Cn2cnc3c(Sc4ccc(F)cc4)ncnc32)cc1 [Verbd. 77] reaches 7% or more?
[reply] Not fulfilled

[ask] Could you tell me if the measured inhibition at 30 µM of Nc1ncnc2ncn(Cc3ccc(F)cc3)c12 [Verbd. 43, 7-(4-Fluoro-benzyl)-7H-purin-6-ylamin] reaches 7% or more?
[reply] Fulfilled

Now for a further compound.
[ask] Could you tell me if the measured inhibition at 30 µM of Cn1c(C#CCCO)nc2c(Sc3ccccc3)ncnc21 [Verbd. 79] reaches 7% or more?
[reply] Not fulfilled

###

Biological target: UniProtKB P49187
Assay: Kinase inhibition assay: JNK3
Format: biochemical
Details: 30µM Testsubstanz (100 µM ATP); read-out: Hemmung von Kinasen in % JNK3 (r)
value.kind: inhibition at 30 µM (%)
Quick reminder: number only, in %, skip the unit.

[ask] Fill blank: measured inhibition at 30 µM of the compound Cn1c(-c2ccccc2)nc2c(Sc3ccc(F)cc3)ncnc21 is ____.
[reply] 16

[ask] Fill blank: measured inhibition at 30 µM of the compound Cn1c(-c2ccccc2)nc2c(Sc3ccccc3)ncnc21 is ____.
[reply] 12

[ask] Fill blank: measured inhibition at 30 µM of the compound Cn1cnc2c(Nc3ccccc3)ncnc21 is ____.
[reply] 5

[ask] Fill blank: measured inhibition at 30 µM of the compound Cn1c(-c2ccc(S(C)(=O)=O)cc2)nc2c(Sc3ccccc3)ncnc21 is ____.
[reply] 7

Others:
[ask] Fill blank: measured inhibition at 30 µM of the compound c1ccc(CSc2ncnc3[nH]cnc23)cc1 is ____.
[reply] 7

[ask] Fill blank: measured inhibition at 30 µM of the compound c1ccc(Cn2cnc3c(Sc4ccccc4)ncnc32)cc1 is ____.
[reply] 0

[ask] Fill blank: measured inhibition at 30 µM of the compound Fc1ccc(Cn2cnc3c(Sc4ccccc4)ncnc32)cc1 is ____.
[reply] 0

[ask] Fill blank: measured inhibition at 30 µM of the compound Cn1cnc2c(Sc3ccc(F)cc3)ncnc21 is ____.
[reply] 9

[ask] Fill blank: measured inhibition at 30 µM of the compound Cn1c(-c2ccccc2)nc2c(-c3ccc(F)cc3)ncnc21 is ____.
[reply] 12

[ask] Fill blank: measured inhibition at 30 µM of the compound c1ccc(Sc2ncnc3[nH]cnc23)cc1 is ____.
[reply] 0

[ask] Fill blank: measured inhibition at 30 µM of the compound Fc1ccc(Nc2ncnc3[nH]cnc23)cc1 is ____.
[reply] 10

[ask] Fill blank: measured inhibition at 30 µM of the compound c1ccc(Nc2ncnc3[nH]cnc23)cc1 is ____.
[reply] 11

[ask] Fill blank: measured inhibition at 30 µM of the compound COc1ncnc2ncn(Cc3ccc(F)cc3)c12 is ____.
[reply] 30

[ask] Fill blank: measured inhibition at 30 µM of the compound Cn1cnc2c(Nc3ccc(F)cc3)ncnc21 is ____.
[reply] 19
